System: SH-SY5Y cells
measurement description: AK (adenylate kinase) release ToxiLight cytotoxicity assay
condition set: PKIS2 primary screening
metric: AK

{"columns": ["compound", "val"],
 "data": [
  ["COc1cccc(NC(=O)Nc2ccc(C)c(-c3ccc(C(=O)Nc4ccncc4)cc3)c2)c1 [UNC10225200A]", 112.40],
  ["O=C(Nc1ccccc1F)NC1CCN(c2ccnc(Nc3ccc(F)cc3)n2)CC1 [GSK1379800]", 198.42],
  ["COc1cc2ncn(-c3cc(OCC4CCCO4)c(C(N)=O)s3)c2cc1OC (stereo not drawn) [UNC10225372A]", 162.91]
]}

###

Tested on: SH-SY5Y cells
measurement description: Nuclear count from microscopy images (cellular growth and toxicity)
condition set: PKIS2 primary screening
Item-by-item account of Nuclear Count

{"columns": ["compound", "test target", "Nuclear Count"],
 "data": [
  ["COc1cc(Nc2ncc3c(C)nc(-c4cc5ccccc5[nH]4)n3n2)cc(OC)c1OC [UNC10225084A]", "SH-SY5Y cells", 82.05],
  ["Fc1ccc(-c2ncn(CCCN3CCOCC3)c2-c2ccccn2)cc1 [UNC10225382A]", "SH-SY5Y cells", 93.57],
  ["Nc1nccc2scc(-c3ccc4c(c3)CCN4C(=O)Cc3ccccc3)c12 [UNC10225119A]", "SH-SY5Y cells", 119.23],
  ["Nc1ncnc2c1ncn2-c1cccc2ccccc12 [UNC10225410A]", "SH-SY5Y cells", 88.30],
  ["COc1cc(Nc2nccc(N3CCC(NC(=O)C(C)c4ccc(Cl)cc4)C3)n2)cc(OC)c1OC (stereo not shown)", "SH-SY5Y cells", 80.40],
  ["COc1cc2nccc(Nc3cccc(Oc4ccccc4)c3)c2cc1OC.Cl [UNC10225170A]", "SH-SY5Y cells", 91.34],
  ["Cc1ccc(S(=O)(=O)Nc2ccc(Nc3nccc(Nc4cccc5[nH]ncc45)n3)cc2)cc1", "SH-SY5Y cells", 129.24],
  ["Cc1ccc(NC(=O)c2ccnc(N3CCCCC3)c2)cc1-c1ccc(C(=O)NCC2CC2)cc1 [UNC10225036A]", "SH-SY5Y cells", 108.51],
  ["Fc1ccc(-c2nc[nH]c2-c2ccncc2)cc1 [UNC10225418A]", "SH-SY5Y cells", 56.56],
  ["Fc1ccc(Nc2nccc(-c3c(-c4ccc(Cl)cc4)nn4ncccc34)n2)cc1F [UNC10225073A]", "SH-SY5Y cells", 119.55],
  ["Cc1cc(NCC(c2ccccc2)c2ccccc2)nc(NCc2ccc(C(F)(F)F)cc2)n1", "SH-SY5Y cells", 83.96],
  ["Cc1ccccc1COc1cc(-n2cnc3cc(Cl)ccc32)sc1C(N)=O [UNC10225491A]", "SH-SY5Y cells", 71.39],
  ["Cc1nn2c(=O)cc(N3CCOCC3)nc2n1Cc1cccc(Cl)c1Cl [UNC10225178A]", "SH-SY5Y cells", 93.42],
  ["Cc1nn2c(=O)cc(N3CCO[C@H](C)C3)nc2n1Cc1cccc(Cl)c1Cl [UNC10225190A]", "SH-SY5Y cells", 111.47],
  ["CC(C)c1nc(-c2ccc(F)c(NS(=O)(=O)c3c(F)cccc3F)c2)c(-c2ccnc(Nc3ccc(N4CCOCC4)nc3)n2)s1 [UNC10225089A]", "SH-SY5Y cells", 76.92],
  ["CCn1c(-c2nonc2N)nc2ccccc21 [UNC10112830A]", "SH-SY5Y cells", 114.37],
  ["COc1cc(Nc2nccc(N3CCC(NC(=O)Nc4cccc(C(C)=O)c4)C3)n2)cc(OC)c1OC (stereo not shown)", "SH-SY5Y cells", 116.36],
  ["COc1cc(Nc2nccc(N3CCC(NC(=O)Nc4cc(C)ccc4C)C3)n2)cc(OC)c1OC (stereo not shown)", "SH-SY5Y cells", 111.04],
  ["Nc1ncnc2[nH]c(-c3ccccc3)nc12 [UNC10243863A]", "SH-SY5Y cells", 66.20],
  ["CN1CCN(Cc2cccc(-c3ccc4c(Nc5ccc(Oc6ccccc6)cc5)ccnc4c3)c2)CC1 [UNC10225484A, reference compound]", "SH-SY5Y cells", 88.62],
  ["COc1ccc(Nc2nccc(NCCNC(=O)c3cc4ccccc4s3)n2)cc1", "SH-SY5Y cells", 88.87],
  ["Oc1ccc2ncnc(Nc3ccc(OCc4ccccc4)cc3)c2c1 [UNC10225360A]", "SH-SY5Y cells", 101.58],
  ["Cn1cc(-c2ccc3c(c2)CCN3C(=O)Cc2ccccc2Cl)c2c(N)ncnc21 [UNC10225172A]", "SH-SY5Y cells", 63.66],
  ["Cc1ccc(F)c(C(=O)Nc2cccc(-c3nn4ccccc4c3-c3ccnc(Nc4cccc(F)c4)n3)c2)c1F [UNC10225076A]", "SH-SY5Y cells", 118.77],
  ["COc1cccc(NC(=O)NCCNc2ccnc(Nc3ccc(F)cc3)n2)c1", "SH-SY5Y cells", 93.19],
  ["Cl.Cl.c1ccc(-c2cc3ccncc3cc2OC2CCNCC2)cc1 [UNC10225463A]", "SH-SY5Y cells", 112.69],
  ["Cc1cccc(-c2nc(C)cc(Nc3ccncc3)n2)n1", "SH-SY5Y cells", 128.02],
  ["COc1cccc(-n2cnc3c(N)ncnc32)c1 [UNC10225454A]", "SH-SY5Y cells", 128.34],
  ["Cl.Cl.NC[C@H](CC1CCCCC1)NC(=O)c1ccc(-c2ccnc3[nH]ccc23)s1 [UNC10225041A]", "SH-SY5Y cells", 83.64],
  ["Cc1ccc(NC(=O)c2cccc(C#N)c2)cc1-c1ccc(C(=O)Nc2ccncc2)cc1 [UNC10225263A]", "SH-SY5Y cells", 75.93],
  ["COc1ccc(Nc2nccc(N3CCC(NS(=O)(=O)c4ccc(NC(C)=O)cc4)C3)n2)cc1 (stereo not shown)", "SH-SY5Y cells", 90.61]
]}
